Listed next: entries and their corresponding melting point.

For orientation, consider the following solved cases.
{"Molecule Smiles": "CC1(C)OC(=O)Nc2ccc(-c3ccc(N)nc3)cc21", "melting point": "257 to 259 °C"}
{"Molecule Smiles": "COc1cc(-c2cc(F)cc(C#N)c2)cc2c1NC(=O)OC2(C)C", "melting point": "252 to 253 °C"}
{"Molecule Smiles": "CC1(C)OC(=O)Nc2ccc(-c3cc(F)cc(C(F)(F)F)c3)cc21", "melting point": "207 to 208 °C"}

Here is the next item to consider.
Ask: Field request: melting point | item: CC1(C)OC(=O)Nc2c(F)cc(-c3cc(F)cc(C#N)c3)cc21
Reply: 256 to 257 °C
